Target: Gal(b1-4)GlcNAc(b1-3)Gal(b1-4)GlcNAc(b1-3)Gal(b1-4)GlcNAc(b1-3)Gal(b1-4)GlcNAc(b1-3)Gal(b1-4)GlcNAc(b1-2)Man(a1-3)[Gal(b1-4)GlcNAc(b1-3)Gal(b1-4)GlcNAc(b1-3)Gal(b1-4)GlcNAc(b1-3)Gal(b1-4)GlcNAc(b1-3)Gal(b1-4)GlcNAc(b1-2)Man(a1-6)]Man(b1-4)GlcNAc(b1-4)[Fuc(a1-6)]GlcNAc
Test: glycan array binding signal (z-score within array); higher = stronger binding
Settings: glycan notation: IUPAC condensed, linker removed
Many of the other results were omitted from the sample, so the strongest signals are more common in it than they were.
Metric Name: glycan array binding signal (z-score)
Answers are plain numbers.

Complete the entry with glycan array binding signal (z-score) for PfulAvr4 (Pseudocercospora fuligena) (protein) HHHHHHDYKDDDDKTYVQDKTPAFVCPAADIKTTKCLGPKDCLYPSPKTCNGYIQCSPADDSYLTGIIHEMPCPSGLLWNDNKKWCDWPENTTCGLVKSAGATEVDATKQGPTPGKYHG
0.048
